PROTOCOL SUMMARY: Nitrite content (ion chromatography; LC-FLD with DAN derivatisation; Griess test) in drug substance, intermediates, reagents, solvents, filters, excipients
Format: physicochemical
EXPERIMENTAL SETUP: ribociclib base (LEE011 B10), ion chromatography
MEASURE NAME: Nitrite [ppm] LOD (1 ppm)

Previously resolved entries follow.
> print(dat)
                                   molecule  result
1  CN(C)C(=O)c1cc2cnc(Nc3ccc(N4CCNCC4)cn3)nc2n1C1CCCC1 [Batch 805193A072]    <LOD
2  CN(C)C(=O)c1cc2cnc(Nc3ccc(N4CCNCC4)cn3)nc2n1C1CCCC1 [Batch B685591]    <LOD
3  CN(C)C(=O)c1cc2cnc(Nc3ccc(N4CCNCC4)cn3)nc2n1C1CCCC1 [Batch 923037A005]    <LOD
4  CN(C)C(=O)c1cc2cnc(Nc3ccc(N4CCNCC4)cn3)nc2n1C1CCCC1 [Batch 923037A002]    <LOD
5  CN(C)C(=O)c1cc2cnc(Nc3ccc(N4CCNCC4)cn3)nc2n1C1CCCC1 [Batch 805193A074]    <LOD

Value lookup for Nitrite [ppm] LOD (1 ppm); key = CN(C)C(=O)c1cc2cnc(Nc3ccc(N4CCNCC4)cn3)nc2n1C1CCCC1 [Batch 805193A073]
<LOD

Value lookup for Nitrite [ppm] LOD (1 ppm); key = CN(C)C(=O)c1cc2cnc(Nc3ccc(N4CCNCC4)cn3)nc2n1C1CCCC1 [Batch B687416]
<LOD

----------
PROTOCOL SUMMARY: DMP433 (N-nitroso-ribociclib) content in ribociclib base (B10) and ribociclib succinate (B12, drug substance) batches and process experiments, LC-MS/MS or HPLC-HRMS
Type: physicochemical
EXPERIMENTAL SETUP: ribociclib base (LEE011 B10)
MEASURE NAME: DMP433 [ppm], result in brackets (extrapolation, estimate of actual value below LOQ) (ppm)
# number only, unit ppm dropped from output

Previously resolved entries follow.
> print(dat)
                                   compound  measured.number
1  CN(C)C(=O)c1cc2cnc(Nc3ccc(N4CCNCC4)cn3)nc2n1C1CCCC1 [Batch 805193A073]            0.030
2  CN(C)C(=O)c1cc2cnc(Nc3ccc(N4CCNCC4)cn3)nc2n1C1CCCC1 [Batch 923037A005]            0.048

Value lookup for DMP433 [ppm], result in brackets (extrapolation, estimate of actual value below LOQ); key = CN(C)C(=O)c1cc2cnc(Nc3ccc(N4CCNCC4)cn3)nc2n1C1CCCC1 [Batch B704196]
0.019

Value lookup for DMP433 [ppm], result in brackets (extrapolation, estimate of actual value below LOQ); key = CN(C)C(=O)c1cc2cnc(Nc3ccc(N4CCNCC4)cn3)nc2n1C1CCCC1 [Batch B0705466]
0.043

----------
PROTOCOL SUMMARY: Nitrite content (ion chromatography; LC-FLD with DAN derivatisation; Griess test) in drug substance, intermediates, reagents, solvents, filters, excipients
Assay type: physicochemical
EXPERIMENTAL SETUP: ribociclib succinate drug substance batches at release
MEASURE NAME: Nitrite NAP method (ppm)
# number only, unit ppm dropped from output

> print(dat)
                                   compound  reading.unit  measured.number
1  CN(C)C(=O)c1cc2cnc(Nc3ccc(N4CCNCC4)cn3)nc2n1C1CCCC1.O=C(O)CCC(=O)O [Batch B695104]           ppm              0.3

Value lookup for Nitrite NAP method (ppm); key = CN(C)C(=O)c1cc2cnc(Nc3ccc(N4CCNCC4)cn3)nc2n1C1CCCC1.O=C(O)CCC(=O)O [Batch B709051]
0.2

Value lookup for Nitrite NAP method (ppm); key = CN(C)C(=O)c1cc2cnc(Nc3ccc(N4CCNCC4)cn3)nc2n1C1CCCC1.O=C(O)CCC(=O)O [Batch B708687]
0.2

Value lookup for Nitrite NAP method (ppm); key = CN(C)C(=O)c1cc2cnc(Nc3ccc(N4CCNCC4)cn3)nc2n1C1CCCC1.O=C(O)CCC(=O)O [Batch B692472]
0.2

Value lookup for Nitrite NAP method (ppm); key = CN(C)C(=O)c1cc2cnc(Nc3ccc(N4CCNCC4)cn3)nc2n1C1CCCC1.O=C(O)CCC(=O)O [Batch B695105]
0.3

Value lookup for Nitrite NAP method (ppm); key = CN(C)C(=O)c1cc2cnc(Nc3ccc(N4CCNCC4)cn3)nc2n1C1CCCC1.O=C(O)CCC(=O)O [Batch B698296]
0.4

Value lookup for Nitrite NAP method (ppm); key = CN(C)C(=O)c1cc2cnc(Nc3ccc(N4CCNCC4)cn3)nc2n1C1CCCC1.O=C(O)CCC(=O)O [Batch B710665]
0.2

----------
PROTOCOL SUMMARY: DMP433 (N-nitroso-ribociclib) content in ribociclib base (B10) and ribociclib succinate (B12, drug substance) batches and process experiments, LC-MS/MS or HPLC-HRMS
Type: physicochemical
EXPERIMENTAL SETUP: ribociclib base (LEE011 B10)
MEASURE NAME: DMP433 [ppm] LOQ (0.0625 ppm)

> print(dat)
                                   molecule                   measure.name  result
1  CN(C)C(=O)c1cc2cnc(Nc3ccc(N4CCNCC4)cn3)nc2n1C1CCCC1 [Batch 923037A002]  DMP433 [ppm] LOQ (0.0625 ppm)     LOQ
2  CN(C)C(=O)c1cc2cnc(Nc3ccc(N4CCNCC4)cn3)nc2n1C1CCCC1 [Batch 805193A072]  DMP433 [ppm] LOQ (0.0625 ppm)     LOQ
3  CN(C)C(=O)c1cc2cnc(Nc3ccc(N4CCNCC4)cn3)nc2n1C1CCCC1 [Batch B704194]  DMP433 [ppm] LOQ (0.0625 ppm)     LOQ
4  CN(C)C(=O)c1cc2cnc(Nc3ccc(N4CCNCC4)cn3)nc2n1C1CCCC1 [Batch B0705467]  DMP433 [ppm] LOQ (0.0625 ppm)     LOQ
5  CN(C)C(=O)c1cc2cnc(Nc3ccc(N4CCNCC4)cn3)nc2n1C1CCCC1 [Batch B704196]  DMP433 [ppm] LOQ (0.0625 ppm)     LOQ

Value lookup for DMP433 [ppm] LOQ (0.0625 ppm); key = CN(C)C(=O)c1cc2cnc(Nc3ccc(N4CCNCC4)cn3)nc2n1C1CCCC1 [Batch B0705466]
LOQ

Value lookup for DMP433 [ppm] LOQ (0.0625 ppm); key = CN(C)C(=O)c1cc2cnc(Nc3ccc(N4CCNCC4)cn3)nc2n1C1CCCC1 [Batch B705465]
LOQ

Value lookup for DMP433 [ppm] LOQ (0.0625 ppm); key = CN(C)C(=O)c1cc2cnc(Nc3ccc(N4CCNCC4)cn3)nc2n1C1CCCC1 [Batch 805193A074]
LOQ

----------
Catalogue of Nitrite NAT enhanced sample prep. (ppm) readings, one per entry.
PROTOCOL SUMMARY: Nitrite content (ion chromatography; LC-FLD with DAN derivatisation; Griess test) in drug substance, intermediates, reagents, solvents, filters, excipients
Type: physicochemical
EXPERIMENTAL SETUP: ribociclib succinate drug substance batches at release; manufacturer Raybow - DS04

Value lookup for Nitrite NAT enhanced sample prep. (ppm); key = CN(C)C(=O)c1cc2cnc(Nc3ccc(N4CCNCC4)cn3)nc2n1C1CCCC1.O=C(O)CCC(=O)O [RIBOCICLIB SUCCINATE 833268R014]
<0.1 ppm

Value lookup for Nitrite NAT enhanced sample prep. (ppm); key = CN(C)C(=O)c1cc2cnc(Nc3ccc(N4CCNCC4)cn3)nc2n1C1CCCC1.O=C(O)CCC(=O)O [RIBOCICLIB SUCCINATE 833268A193]
0.1 ppm

Value lookup for Nitrite NAT enhanced sample prep. (ppm); key = CN(C)C(=O)c1cc2cnc(Nc3ccc(N4CCNCC4)cn3)nc2n1C1CCCC1.O=C(O)CCC(=O)O [RIBOCICLIB SUCCINATE 833268R009]
<0.1 ppm

Value lookup for Nitrite NAT enhanced sample prep. (ppm); key = CN(C)C(=O)c1cc2cnc(Nc3ccc(N4CCNCC4)cn3)nc2n1C1CCCC1.O=C(O)CCC(=O)O [RIBOCICLIB SUCCINATE 833268A212]
<0.1 ppm

Value lookup for Nitrite NAT enhanced sample prep. (ppm); key = CN(C)C(=O)c1cc2cnc(Nc3ccc(N4CCNCC4)cn3)nc2n1C1CCCC1.O=C(O)CCC(=O)O [RIBOCICLIB SUCCINATE 833268A144]
<0.1 ppm

Value lookup for Nitrite NAT enhanced sample prep. (ppm); key = CN(C)C(=O)c1cc2cnc(Nc3ccc(N4CCNCC4)cn3)nc2n1C1CCCC1.O=C(O)CCC(=O)O [RIBOCICLIB SUCCINATE 833268A211]
<0.1 ppm

Value lookup for Nitrite NAT enhanced sample prep. (ppm); key = CN(C)C(=O)c1cc2cnc(Nc3ccc(N4CCNCC4)cn3)nc2n1C1CCCC1.O=C(O)CCC(=O)O [RIBOCICLIB SUCCINATE 833268A201]
0.1 ppm
